Fold of Affinity relative to h1601-008 values, listed per item
- test.target: T1, human prothrombin with His tag (human, UniProt P00734 44-622)
- T1 construct: also called h-prothrombin-his
- measurement.protocol: Biacore; reference h1601-008
Lab book: enter the figure in fold, no units written.

Previously resolved entries follow.
{"columns": ["binder", "display.unit", "Fold of Affinity relative to h1601-008"],
 "data": [
  ["aTM-4 (antibody, V domains shown) VH: EVQLVESGGGLVQPGGSLRLSCAASGFTFSDYYMAWVRQAPGKGLEWVSNINSDGSSTYYLDSLKSRFTISRDNSKNTLYLQMNSLKAEDTAVYYCARDHYLGNSYVFDLWGQGTTVTVSS VL: DIQMTQSPSSLSASVGDRVTITCKASEDIYNRLAWYQQKPGKAPRLIISGATSLETGVPSRFSGSGSGKDYTLTISSLQPEDFATYYCQQYWSTPWTFGGGTKVEIK", "fold", 29.3],
  ["aTM-1 (antibody, V domains shown) VH: EVQLVESGGGLVQPGGSLRLSCAASGFTFSDYYMAWVRQAPGKGLEWVSNINSDGSSTYYLDSLKSRFTISRDNSKNTLYLQMNSLKAEDTAVYYCARDHYIGASYVFDYWGQGTTVTVSS VL: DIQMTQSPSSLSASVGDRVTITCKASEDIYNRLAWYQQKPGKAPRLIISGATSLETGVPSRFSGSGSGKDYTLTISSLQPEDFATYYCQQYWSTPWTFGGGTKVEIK", "fold", 22.1],
  ["aTM-7 (antibody, V domains shown) VH: EVQLVESGGGLVQPGGSLRLSCAASGFTFSDYYMAWVRQAPGKGLEWVSNINSDGSSTYYLDSLKSRFTISRDNSKNTLYLQMNSLKAEDTAVYYCARDHYMGNSYVFDTWGQGTTVTVSS VL: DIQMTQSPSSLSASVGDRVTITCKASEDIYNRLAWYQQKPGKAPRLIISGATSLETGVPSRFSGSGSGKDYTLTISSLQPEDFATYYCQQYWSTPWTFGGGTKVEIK", "fold", 37.5],
  ["humanized antibody h1601-008 (antibody, human IgG4 S228P, kappa, V domains shown) VH: EVQLVESGGGLVQPGGSLRLSCAASGFTFSDYYMAWVRQAPGKGLEWVSNINSDGSSTYYLDSLKSRFTISRDNSKNTLYLQMNSLKAEDTAVYYCARDHYHGNSYVFDYWGQGTTVTVSS VL: DIQMTQSPSSLSASVGDRVTITCKASEDIYNRLAWYQQKPGKAPRLIISGATSLETGVPSRFSGSGSGKDYTLTISSLQPEDFATYYCQQYWSTPWTFGGGTKVEIKR", "fold", 1]
]}

Moving on to another binder below.
Incoming: Could you share which Fold of Affinity relative to h1601-008 value was measured for aTM-2 (antibody, V domains shown) VH: EVQLVESGGGLVQPGGSLRLSCAASGFTFSDYYMAWVRQAPGKGLEWVSNINSDGSSTYYLDSLKSRFTISRDNSKNTLYLQMNSLKAEDTAVYYCARDHYLGNSYVFDSWGQGTTVTVSS VL: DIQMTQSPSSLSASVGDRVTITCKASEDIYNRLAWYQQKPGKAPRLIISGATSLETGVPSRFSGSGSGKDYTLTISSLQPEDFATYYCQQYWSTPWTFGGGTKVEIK ?
Outgoing: 62.4
